Biological target: T1, human Gal10-His (human, UniProt Q05315 2-142, limits assumed)
T1 construct: also called hGal10-His; human Gal10-His tagged; not shown: His tag
T1 sequence: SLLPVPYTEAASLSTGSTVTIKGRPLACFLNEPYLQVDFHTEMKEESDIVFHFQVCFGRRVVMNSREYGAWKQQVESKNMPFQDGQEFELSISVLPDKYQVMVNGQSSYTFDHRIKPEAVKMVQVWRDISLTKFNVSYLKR
Assay: SPR Biacore 3000, purified hFab (2 conc.) on Gal10-His captured by anti-His CM5
experimental-endpoint: kd-fold drop vs g7B07 (fold)
The figure you give is taken to be in fold; do not add the unit.

>>> result_value("g23H09 (Fab) (Fab, V domains shown, same VH/VL) VH: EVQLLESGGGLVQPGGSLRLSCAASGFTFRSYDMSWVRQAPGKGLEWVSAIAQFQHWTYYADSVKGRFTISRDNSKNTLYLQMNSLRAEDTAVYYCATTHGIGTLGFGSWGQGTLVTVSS VL: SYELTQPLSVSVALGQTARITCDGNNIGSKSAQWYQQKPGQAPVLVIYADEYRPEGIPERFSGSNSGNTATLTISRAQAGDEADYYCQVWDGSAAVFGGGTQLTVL")
1.8
>>> result_value("g24F02 (human Fab) (Fab, V domains shown, Human Fab backbone (human CH1, human lambda CL); also called germlined 24F02) VH: EVQLLESGGGLVQPGGSLRLSCAASGFTFSSYAMSWVRQAPGKGLEWVSAINNGGGSTSYADSVKGRFTISRDNSKNTLYLQMNSLRAEDTAVYYCAKGLRVGVLGFDYWGQGTLVTVSS VL: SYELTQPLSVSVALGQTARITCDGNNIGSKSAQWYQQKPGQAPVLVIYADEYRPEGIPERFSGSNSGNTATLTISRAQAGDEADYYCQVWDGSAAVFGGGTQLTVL")
2.8

Consider now this further binder.
Entry g7B07 (human Fab) (Fab, V domains shown, Human Fab backbone; their format is not certain; also called g7B07-hFab; germlined 7B07) VH: EVQLLESGGGLVQPGGSLRLSCAASGFTFRSYDMSWVRQAPGKGLEWVSAIKNGGGITYYADSVKGRFTISRDNSKNTLYLQMNSLRAEDTAVYYCATTHGIGTLGFGSWGQGTLVTVSS VL: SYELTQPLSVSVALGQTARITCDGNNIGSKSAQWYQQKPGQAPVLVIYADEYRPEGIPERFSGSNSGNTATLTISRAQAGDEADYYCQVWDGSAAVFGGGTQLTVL — recorded kd-fold drop vs g7B07 = 1
